Biological target: T1, VEGFR-1-Fc (UniProt P17948 27-338)
T1 construct: domain: first three Ig domains; expressed in Drosophila S2 cells, purified on Protein A sepharose; also called VEGFR-1-Fc fusion protein; not shown: Fc fragment from the Signal-pIgPlus vector
T1 sequence (P17948 27-338): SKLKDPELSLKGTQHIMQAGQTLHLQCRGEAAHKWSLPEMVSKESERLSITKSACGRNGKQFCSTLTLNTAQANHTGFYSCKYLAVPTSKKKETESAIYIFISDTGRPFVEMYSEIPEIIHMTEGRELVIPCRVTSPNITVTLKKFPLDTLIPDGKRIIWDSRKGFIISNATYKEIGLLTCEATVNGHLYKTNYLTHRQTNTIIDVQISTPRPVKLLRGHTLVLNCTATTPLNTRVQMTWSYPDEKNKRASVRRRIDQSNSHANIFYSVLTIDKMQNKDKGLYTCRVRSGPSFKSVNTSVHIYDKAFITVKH
Experiment: receptor-Fc IP
parameter: binding result

INSERT INTO assay_data (binder, reported) VALUES
  ('41-1 (ligand) AHYNTEILKFMDVYQRSYCHPREVCIDVGKEYPDEIEYIFKPSCVPLMRCGGCCNDEGLECVPTEESNITMQIMRIKPHQGQHIGEMSFLQHNKCECRPKKD', 'binds'),
  ('33-11 (ligand) GQNHHEVVKSIDNEWRKTQCMPIETLVDIFQEYPDEIEYIFKPPCVSVYRCGGCCNSEGLQCVPTEESNITMQIMRITVPLSQGPKPVTISFLQHNKCECRPKKD', 'no binding'),
  ('32-3 (ligand) GQNHHEVVKSIDNEWRKTQCMPIETLVDIFQEFGVATNTFFKPPCVSVYRCGGCCNSEGLQCVPTEESNITMQIMRIKPHQGQHIGEMSFLQHNKCECRPKKD', 'no binding'),
  ('73-5 (ligand) GQNHHEVVKSIDNEWRKTQCMPREVCIDVGKEYPDEIEYIFKPPCVSVYRCGGCCNDEGLECVPTEESNITMQIMRIKPHQGQHIGEMSFANHTSCRCMSKLD', 'no binding');

Numbers sourced from patent US20080058263A1.
